- SYSTEM UNDER TEST: T1, ZIKV (prM80E) with a C-terminal myc-myc-hexahistidine tag (Zika virus, UniProt A0A024B7W1 104-694)
- T1 construct: also called ZIKV (prM80E)-mmH; ZIKV-mmH
- TEST NAME: SPR, mAb captured, 37C
MEASURED ATTRIBUTE: t½ pH 7.4/t½ pH 5.0
One number for each entry.

{"columns": ["BINDER", "t½ pH 7.4/t½ pH 5.0"],
 "data": [
  ["H4H25591P (antibody, V domains shown) VH: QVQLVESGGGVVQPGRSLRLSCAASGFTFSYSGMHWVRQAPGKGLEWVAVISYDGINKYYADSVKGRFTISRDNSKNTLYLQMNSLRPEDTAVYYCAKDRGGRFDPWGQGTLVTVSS VL: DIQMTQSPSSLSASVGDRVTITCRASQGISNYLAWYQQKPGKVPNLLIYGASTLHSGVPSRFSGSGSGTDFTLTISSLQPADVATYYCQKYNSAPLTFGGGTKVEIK", 2.4]
]}

Provide t½ pH 7.4/t½ pH 5.0 values for the following items, in order.
1. H4H25710N (antibody, V domains shown) VH: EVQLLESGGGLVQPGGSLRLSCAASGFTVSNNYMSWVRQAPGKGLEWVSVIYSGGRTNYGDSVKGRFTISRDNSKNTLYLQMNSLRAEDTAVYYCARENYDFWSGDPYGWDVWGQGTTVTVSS VL: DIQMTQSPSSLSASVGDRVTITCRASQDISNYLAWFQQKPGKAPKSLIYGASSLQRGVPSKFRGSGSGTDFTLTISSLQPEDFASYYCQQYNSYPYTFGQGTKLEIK
2. H4H25619P (antibody, V domains shown) VH: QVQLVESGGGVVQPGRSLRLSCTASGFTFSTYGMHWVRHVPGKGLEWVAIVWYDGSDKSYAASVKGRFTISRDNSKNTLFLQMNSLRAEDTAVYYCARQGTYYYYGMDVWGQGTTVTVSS VL: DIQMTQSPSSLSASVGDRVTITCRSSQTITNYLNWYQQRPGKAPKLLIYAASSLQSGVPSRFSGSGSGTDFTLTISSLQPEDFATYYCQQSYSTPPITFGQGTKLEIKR

## Output
1: 62.6; 2: 0.3
